Provenance of the data: PubChem BioAssay AID1963825

assay: Anticancer human tumor 997537-175-T-J1-PDC patient-derived colon adenocarcinoma cell line growth inhibition [POLQ]; conditions: 997537-175-T-J1-PDC complex spheroid viability, combination with POLQ inhibitors; second compound 3.16 µM; first compound 10 µM; active compounds read low;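 also: luminescence signal used as a surrogate for viable cells; spheroids exposed to drugs for seven days before readout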
parameter: viability, T/C

1. CCCS(=O)(=O)Nc1ccc(F)c(C(=O)c2c[nH]c3ncc(-c4ccc(Cl)cc4)cc23)c1F + Cc1cccc(N(C)C(=O)C2C(O)CCN2c2nc(C)cc(C(F)(F)F)c2C#N)c1 = 36.7%
2. CCc1cc2c(N3CCc4c(cc(Cn5ccnc5)cc4-c4cn(C)nc4C(F)(F)F)C3=O)ccnc2c(OC)n1 + Nc1ccc(C#CCN(C(=O)Cc2ncc(C(F)(F)F)cc2C(F)(F)F)c2ccc(F)cc2)nn1 = 64.1%
3. COc1cc(C2c3cc4c(cc3C(OC3OC5COC(C)OC5C(O)C3O)C3COC(=O)C23)OCO4)cc(OC)c1O (stereo unspecified) + Nc1ccc(C#CCN(C(=O)Cc2ncc(C(F)(F)F)cc2C(F)(F)F)c2ccc(F)cc2)nn1 = 54.3%

## Input Request the reported viability, T/C associated with Nc1ccn(C2OC(CO)C(O)C2(F)F)c(=O)n1 (stereo unspecified) + Nc1ccc(C#CCN(C(=O)Cc2ncc(C(F)(F)F)cc2C(F)(F)F)c2ccc(F)cc2)nn1
## Output 84.5%

## Input Request the reported viability, T/C associated with O=C(c1cc(Cc2n[nH]c(=O)c3ccccc23)ccc1F)N1CCN(C(=O)C2CC2)CC1 + Cc1cccc(N(C)C(=O)C2C(O)CCN2c2nc(C)cc(C(F)(F)F)c2C#N)c1
## Output 103%

## Input Request the reported viability, T/C associated with O=C(c1cc(Cc2n[nH]c(=O)c3ccccc23)ccc1F)N1CCN(C(=O)C2CC2)CC1 + COC1C(OC(N)=O)C(O)C(Oc2ccc3c(O)c(NC(=O)c4ccc(O)c(CC=C(C)C)c4)c(=O)oc3c2C)OC1(C)C
## Output 96.9%

## Input Request the reported viability, T/C associated with O=c1[nH]cc(F)c(=O)[nH]1 + Cc1cccc(N(C)C(=O)C2C(O)CCN2c2nc(C)cc(C(F)(F)F)c2C#N)c1
## Output 79.6%

## Input Request the reported viability, T/C associated with O=c1[nH]cc(F)c(=O)[nH]1 + COC1C(OC(N)=O)C(O)C(Oc2ccc3c(O)c(NC(=O)c4ccc(O)c(CC=C(C)C)c4)c(=O)oc3c2C)OC1(C)C
## Output 92.6%

## Input Request the reported viability, T/C associated with CCCS(=O)(=O)Nc1ccc(F)c(C(=O)c2c[nH]c3ncc(-c4ccc(Cl)cc4)cc23)c1F + COC1C(OC(N)=O)C(O)C(Oc2ccc3c(O)c(NC(=O)c4ccc(O)c(CC=C(C)C)c4)c(=O)oc3c2C)OC1(C)C
## Output 30.1%

## Input Request the reported viability, T/C associated with CC1COCCN1c1cc(C2(S(C)(=N)=O)CC2)nc(-c2ccnc3[nH]ccc23)n1 (stereo unspecified) + COC1C(OC(N)=O)C(O)C(Oc2ccc3c(O)c(NC(=O)c4ccc(O)c(CC=C(C)C)c4)c(=O)oc3c2C)OC1(C)C
## Output 66.6%

## Input Request the reported viability, T/C associated with CC1COCCN1c1cc(C2(O)CC3CCC(C2)O3)c2cnn(-c3ccn[nH]3)c2n1 (stereo unspecified) + Nc1ccc(C#CCN(C(=O)Cc2ncc(C(F)(F)F)cc2C(F)(F)F)c2ccc(F)cc2)nn1
## Output 74.7%
